# MEASUREMENT_NOTES: Metabolic stability in rat hepatocytes (intrinsic clearance)
# Type: in vitro ADME
# SETTINGS: male, Sprague-Dawley, freshly isolated rat hepatocytes, read-out: rClint hep
Field: Hepatocyte intrinsic clearance at 1 μM. Provide a value for each of the molecules that follow.
Answers are plain numbers, in µL/min/mg.

Some molecules with recorded Hepatocyte intrinsic clearance at 1 μM:
// returns reported Hepatocyte intrinsic clearance at 1 μM for input Cc1cc(OC(C)C)ccc1C(=O)Nc1ccc2sc(CO)nc2c1
10

Further, for Cc1cc(OC(C)(C)C)ccc1C(=O)Nc1ccc2sc(CO)nc2c1 ?
22

Thanks! And Cc1cc(OC(C)C)ccc1C(=O)Nc1ccc2sc(CO)nc2c1F ?
11.8

Further cases:
Look at this molecule and give its reported Hepatocyte intrinsic clearance at 1 μM. CN(C)c1ccc(C(=O)Nc2ccc3sc(CO)nc3c2)c2ccccc12
14

###

# TARGET_UNDER_TEST: hVR1 (Homo sapiens, UniProt Q8NER1)
# Construct: expressed in transfected cells
# Sequence (Q8NER1 whole entry): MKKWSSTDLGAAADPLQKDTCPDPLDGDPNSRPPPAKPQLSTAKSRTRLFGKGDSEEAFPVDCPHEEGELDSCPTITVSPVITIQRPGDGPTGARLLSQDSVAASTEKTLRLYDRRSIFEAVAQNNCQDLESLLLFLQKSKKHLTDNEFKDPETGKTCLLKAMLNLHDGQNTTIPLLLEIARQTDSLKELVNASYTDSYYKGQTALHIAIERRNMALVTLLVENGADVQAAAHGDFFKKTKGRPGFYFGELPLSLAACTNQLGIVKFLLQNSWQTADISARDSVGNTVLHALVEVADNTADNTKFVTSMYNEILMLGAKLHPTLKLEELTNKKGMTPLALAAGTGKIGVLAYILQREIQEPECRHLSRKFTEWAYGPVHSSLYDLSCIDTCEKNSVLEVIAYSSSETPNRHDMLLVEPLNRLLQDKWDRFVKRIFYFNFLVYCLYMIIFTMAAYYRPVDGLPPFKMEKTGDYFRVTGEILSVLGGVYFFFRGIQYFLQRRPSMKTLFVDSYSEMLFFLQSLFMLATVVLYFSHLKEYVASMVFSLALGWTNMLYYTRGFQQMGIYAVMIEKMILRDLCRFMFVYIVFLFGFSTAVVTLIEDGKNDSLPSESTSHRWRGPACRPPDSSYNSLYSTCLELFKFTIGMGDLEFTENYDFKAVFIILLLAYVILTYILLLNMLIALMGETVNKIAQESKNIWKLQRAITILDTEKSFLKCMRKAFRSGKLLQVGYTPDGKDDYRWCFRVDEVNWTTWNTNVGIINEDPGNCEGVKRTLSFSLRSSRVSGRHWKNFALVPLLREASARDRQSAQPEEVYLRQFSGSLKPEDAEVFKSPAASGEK
# MEASUREMENT_NOTES: hVR1 FLIPR (Fluorometric Image Plate Reader) screening assay, IC50 determination
# Format: cell-based
# SETTINGS: CHO cells stably expressing hVR1; agonist capsaicin
pIC50: −log10 of the molar value.
Decide by pIC50: equal to or exceeding 7 means True, less means False.

Reported pIC50 at or above 7? O=C(Nc1ccc2sc(CO)nc2c1F)c1ccc(OCC(F)(F)F)nc1
False

Now consider CN(C)c1ccc(C(=O)Nc2ccc3sc(CO)nc3c2)c2ccccc12 and answer again.
True

Now the same for O=C(Nc1ccc2sc(CO)nc2c1)c1ccc(C(F)(F)F)c(F)c1
True

Further, for O=C(Nc1ccc2sc(CO)nc2c1F)c1ccc(C(F)(F)F)nc1 ?
False

Continuing:
Entry Cc1cc(OC(C)(C)C)ccc1C(=O)Nc1ccc2sc(CO)nc2c1 : is its pIC50 no less than 7?
True

Same thing, different molecule: O=C(Nc1ccc2sc(CO)nc2c1)c1ccc(OC(F)(F)C(F)F)cc1
True

Similarly, Cc1nc(C(F)(F)F)ccc1C(=O)Nc1ccc2sc(CO)nc2c1F ?
False

Again, but for O=C(Nc1ccc2sc(CO)nc2c1)c1ccc(C2CCCCC2)cc1
True

And Cc1cc(OC(C)C)ccc1C(=O)Nc1ccc2sc(CO)nc2c1 ?
True

All figures here come from patent US20080070946A1.
